Target: PDGFR (Homo sapiens, UniProt P09619)
Sequence (P09619 33-1106): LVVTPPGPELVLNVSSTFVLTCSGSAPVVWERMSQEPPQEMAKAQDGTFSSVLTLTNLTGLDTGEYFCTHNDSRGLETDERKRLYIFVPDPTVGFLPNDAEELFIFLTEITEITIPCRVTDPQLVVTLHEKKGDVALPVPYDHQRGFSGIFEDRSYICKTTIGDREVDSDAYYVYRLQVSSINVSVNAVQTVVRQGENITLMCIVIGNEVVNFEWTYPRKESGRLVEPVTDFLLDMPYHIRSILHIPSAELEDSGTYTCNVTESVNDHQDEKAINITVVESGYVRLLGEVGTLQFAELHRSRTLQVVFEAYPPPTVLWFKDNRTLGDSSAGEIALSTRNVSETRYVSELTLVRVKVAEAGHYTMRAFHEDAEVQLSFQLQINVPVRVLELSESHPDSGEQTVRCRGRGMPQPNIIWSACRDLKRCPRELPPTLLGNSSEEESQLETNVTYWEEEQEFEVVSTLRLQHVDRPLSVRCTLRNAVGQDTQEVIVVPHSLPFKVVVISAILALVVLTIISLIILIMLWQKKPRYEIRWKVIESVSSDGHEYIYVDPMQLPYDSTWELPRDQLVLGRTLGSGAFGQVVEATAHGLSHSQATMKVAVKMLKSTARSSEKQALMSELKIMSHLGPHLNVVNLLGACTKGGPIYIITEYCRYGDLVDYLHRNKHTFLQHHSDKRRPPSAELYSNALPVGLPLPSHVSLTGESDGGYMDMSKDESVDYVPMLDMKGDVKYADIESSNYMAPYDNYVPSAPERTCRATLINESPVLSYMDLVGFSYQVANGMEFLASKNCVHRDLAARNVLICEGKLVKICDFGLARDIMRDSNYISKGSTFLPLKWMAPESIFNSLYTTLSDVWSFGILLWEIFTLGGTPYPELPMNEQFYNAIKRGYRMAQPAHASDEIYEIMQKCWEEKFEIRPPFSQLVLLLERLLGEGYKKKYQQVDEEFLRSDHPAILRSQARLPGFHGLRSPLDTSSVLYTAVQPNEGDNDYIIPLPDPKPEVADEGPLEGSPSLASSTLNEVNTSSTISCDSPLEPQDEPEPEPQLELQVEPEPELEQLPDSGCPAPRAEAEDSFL
Test: PDGF-stimulated receptor phosphorylation in U1242 cells, ELISA
Type: cell-based
Design: U1242 (PDGF-β receptor); host or cells: U1242 MG glioma cells
Settings: 100 ng/ml PDGF-BB; read-out: ELISA P-TYR U1242 IC50
endpoint-label: log10 IC50 (log10 of the value in µM)
Kindly note that the scale is log10 and the underlying IC50 is in µM.

Check out these entries, answers already filled in.
molecule: CC(O)=C(C#N)C(=O)Nc1ccc([N+](=O)[O-])cc1
measurement: 2.26
--
molecule: Cc1cc2nc(-c3ccccc3)c(=O)[nH]c2cc1C
measurement: 1.00
--
molecule: O=C(NN=Cc1ccc(O)c(O)c1)C(=O)Nc1cccc(O)c1
measurement: 1.95

Moving on to the next compound.
Value of measured log10 IC50 for the entry COc1cc2cc(-c3ccccc3)c(Cl)nc2cc1OC : 1.00
